I'd be grateful if you could share measured pEC50 for these entries.
- Substrate: NP of A/Wisconsin/67/2005(H3N2/H3W) (influenza A virus A/Wisconsin/67/2005 (H3N2))
- Sequence (P03466 whole entry): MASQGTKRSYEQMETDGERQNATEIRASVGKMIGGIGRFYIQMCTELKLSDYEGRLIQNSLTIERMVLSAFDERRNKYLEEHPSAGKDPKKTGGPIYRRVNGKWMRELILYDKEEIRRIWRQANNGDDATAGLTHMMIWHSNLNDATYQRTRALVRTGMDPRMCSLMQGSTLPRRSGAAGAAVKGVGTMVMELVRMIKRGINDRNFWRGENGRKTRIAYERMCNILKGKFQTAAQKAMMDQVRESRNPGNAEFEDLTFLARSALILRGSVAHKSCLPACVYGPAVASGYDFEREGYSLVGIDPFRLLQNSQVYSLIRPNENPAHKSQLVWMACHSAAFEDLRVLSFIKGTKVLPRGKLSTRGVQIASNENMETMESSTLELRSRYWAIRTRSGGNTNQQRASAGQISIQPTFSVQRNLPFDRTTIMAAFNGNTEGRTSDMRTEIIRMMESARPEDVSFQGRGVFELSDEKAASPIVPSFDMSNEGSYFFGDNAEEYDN
- experiment: sandwich ELISA, capture IgG; NP of lysed virus titrated; HRP-NP17 detection
Give bare numbers, as −log10 of the molar value.

binder: NP7 (antibody, V domains shown) VH: EVQLVESGGGLVQPGGSLRLSCAASGFTISNGGIHWVRQAPGKGLEWVAGIGPYGGFTSYADSVKGRFTISADTSKNTAYLQMNSLRAEDTAVYYCARFYSNYYGYHGVMDYWGQGTLVTVSS VL: DIQMTQSPSSLSASVGDRVTITCRASQDVFGWVAWYQQKPGKAPKLLISYSASLYSGVPSRFSGSGSGTDFTLTISSLQPEDFATYYCQQYFNYPLTFGQGTKVEIKR
measuredNumber: 9.09
--
binder: NP19 (antibody, V domains shown) VH: EVQLVESGGGLVQPGGSLRLSCAASGFTISSWGIHWVRQAPGKGLEWVAGIGPFWGYTSYADSVKGRFTISADTSKNTAYLQMNSLRAEDTAVYYCARFGVDNYGYMDYWGQGTLVTVSS VL: DIQMTQSPSSLSASVGDRVTITCRASQDVSGWVAWYQQKPGKAPKLLISWSTGLYSGVPSRFSGSGSGTDFTLTISSLQPEDFATYYCQQYFNFPVTFGQGTKVEIKR
measuredNumber: 9.12
--
binder: NP18 (antibody, V domains shown) VH: EVQLVESGGGLVQPGGSLRLSCAASGFTISGGGIHWVRQAPGKGLEWVASIWPSWGSTSYADSVKGRFTISADTSKNTAYLQMNSLRAEDTAVYYCARFHNGGFLVMDYWGQGTLVTVSS VL: DIQMTQSSSSLSASVGDRVTITCRASQDVGYYVAWYQQKPGKAPKLLIYGPRFLYSGVPSRFSGSGSGTDFTLTISSLQPEDFATYYCQQYSNWPITFGQGTKVEIKR
measuredNumber: 6.00
--
binder: NP17 (antibody, V domains shown) VH: EVQLVESGGGLVQPGGSLRLSCAASGFTISGGSIHWVRQAPGKGLEWVASIWPFGGSTFYADSVKGRFTISADTSKNTAYLQMNSLRAEDTAVYYCARFGHGHNVIMDYWGQGTLVTVSS VL: DIQMTQSPSSLSASVGDRVTITCRASQDVGYSVAWYQQKPGKAPKLLISSPGGLYSGVPSRFSGSGSGTDFTLTISSLQPEDFATYYCQQYYDYPVTFGQGTKVEIKR
measuredNumber: 8.97

In: Param item = NP16 (antibody, V domains shown) VH: EVQLVESGGGLVQPGGSLRLSCAASGFTIGNSGIHWVRQAPGKGLEWVAWIGPYWGFTSYADSVKGRFTISADTSKNTAYLQMNSLRAEDTAVYYCARFGNHWHLFMDYWGQGTLVTVSS VL: DIQMTQSPSSLSASVGDRVTITCRASQDVGSYVAWYQQKPGKAPKLLISWTTGLYSGVPSRFSGSGSGTDFTLTISSLQPEDFATYYCQQYFSYPVTFGQGTKVEIKR ; retrieve measured pEC50.
Out: 9.05
